species: Rattus norvegicus; test: Open TG-GATES - Regimen: Single; assay type: toxicity, organism-based, Sprague-Dawley; design: regimen Single, gender Male, age 6 weeks; conditions: in vivo, po, 100 mg/kg, 9 h, tissue Blood, route gavage, dose level Low
measured-metric: MCH (pg)
Number in pg, nothing else.

Previously resolved entries follow.
molecule | MCH / pg
Clc1ccccc1CN1CCc2sccc2C1 | 21.4
CCc1cc(C(N)=S)ccn1 [ETHIONAMIDE] | 21.7
O=C(O)c1cc(/N=N/c2ccc(S(=O)(=O)Nc3ccccn3)cc2)ccc1O | 21.4

Then there is this molecule:
## Task Fill in: MCH of "C[C@H](CS)C(=O)N1CCC[C@H]1C(=O)O" is ___
## Result 21.6

----------
# Neu values compiled below
species: Rattus norvegicus; assay: Open TG-GATES - Regimen: Single; assay type: toxicity, organism-based, Sprague-Dawley; design: regimen Single, gender Male, age 6 weeks; conditions: in vivo, po, 0 mg/kg, 24 h, tissue Blood, route gavage, dose level Control
Supply the numeric figure in %, leaving out any unit text.

Worked cases, answers included:
molecule | unit-abbrev | Neu
NC(=O)N1c2ccccc2C=Cc2ccccc21 [CARBAMAZEPINE] | % | 15.8
CC(=O)Oc1ccccc1C(=O)O | % | 17.8
Cn1c(=O)c2[nH]cnc2n(C)c1=O.O | % | 13
O=C(O)c1cc(/N=N/c2ccc(S(=O)(=O)Nc3ccccn3)cc2)ccc1O | % | 20.4
COc1ccc(Cc2nccc3cc(OC)c(OC)cc23)cc1OC | % | 14.6

## Task Quick one: Neu for CCc1cc(C(N)=S)ccn1 [ETHIONAMIDE] ?
## Result 15.6

## Task What measured Neu goes with "Clc1ccccc1CN1CCc2sccc2C1" ?
## Result 19.2

## Task Entry "CN(C)CCC=C1c2ccccc2CCc2ccccc21" : reported Neu = ?
## Result 17

## Task Given the entry "NC(=O)N/N=C/c1ccc([N+](=O)[O-])o1" , report its measured Neu.
## Result 18.6

## Task Quick check: Neu of "C[C@H](CS)C(=O)N1CCC[C@H]1C(=O)O" ?
## Result 15.4

## Task Neu for CSc1ccc2c(c1)N(CCC1CCCCN1C)c1ccccc1S2 (configuration not stated) ?
## Result 16.8

## Task What value of Neu has been reported for the following molecule? "COc1cc2c(c3oc(=O)c4c(c13)CCC4=O)[C@@H]1C=CO[C@@H]1O2"
## Result 16.2

----------
species on record: Rattus norvegicus; test: Open TG-GATES - Regimen: Daily Repeat; type: toxicity, organism-based, Sprague-Dawley; parameters: regimen Daily Repeat, gender Male, age 6 weeks; details: in vivo, po, 0 mg/kg, […], tissue Plasma, route gavage, dose level Control, time 28 day
Use 200 mg/dL as the dividing line for GLC, with the line itself on the yes (1) side and lower values as no (0).

Solved cases (3 shown):
molecule | qualitative-label
Clc1ccccc1CN1CCc2sccc2C1 [TICLOPIDINE] | yes (1)
NC(=O)N1c2ccccc2C=Cc2ccccc21 [CARBAMAZEPINE] | yes (1)
CCCC(CCC)C(=O)O [VALPROIC ACID] | yes (1)

## Task Can CO[C@H]1/C=C/O[C@@]2(C)Oc3c(C)c(O)c4c(O)c(c(/C=N/N5CCN(C)CC5)c(O)c4c3C2=O)NC(=O)/C(C)=C\C=C\[C@H](C)[C@H](O)[C@@H](C)[C@@H](O)[C@@H](C)[C@H](OC(C)=O)[C@@H]1C [RIFAMPIN] be said to have GLC at or above 200 mg/dL?
## Result no (0)

## Task Threshold query (GLC >= 200 mg/dL) on C[C@H](CS)C(=O)N1CCC[C@H]1C(=O)O [CAPTOPRIL]
## Result yes (1)

## Task // inclusive: GLC at least 200 mg/dL? input: CSc1ccc2c(c1)N(CCC1CCCCN1C)c1ccccc1S2 (stereo not given) [THIORIDAZINE]
## Result no (0)

## Task Form field: GLC at least 200 mg/dL? Entry: O=C(O)c1cc(/N=N/c2ccc(S(=O)(=O)Nc3ccccn3)cc2)ccc1O [SULFASALAZINE]
## Result yes (1)

## Task Hi team, for COc1ccc2c(c1)c(CC(=O)O)c(C)n2C(=O)c1ccc(Cl)cc1 [INDOMETHACIN] , is the recorded GLC at or above 200 mg/dL?
## Result yes (1)

## Task GLC >= 200 mg/dL for NC(=O)N/N=C/c1ccc([N+](=O)[O-])o1 [NITROFURAZONE] ?
## Result no (0)

## Task Does the molecule COc1ccc(Cc2nccc3cc(OC)c(OC)cc23)cc1OC [PAPAVERINE] have recorded GLC that is 200 mg/dL or more?
## Result yes (1)

## Task Entry CC(=O)Oc1ccccc1C(=O)O [ASPIRIN] : is its GLC no less than 200 mg/dL?
## Result yes (1)

----------
species on record: Rattus norvegicus; assay: Open TG-GATES - Regimen: Daily Repeat; type: toxicity, organism-based, Sprague-Dawley; set-up: regimen Daily Repeat, gender Male, age 6 weeks; conditions: in vivo, po, 0 mg/kg, […], tissue Kidney, route gavage, dose level Control, time 28 day
measured-metric: KIDNEY_TOTAL (g)
Express your answer in g, writing the number without its unit.

compound | number
COc1ccc(Cc2nccc3cc(OC)c(OC)cc23)cc1OC | 3
COc1ccc2c(c1)c(CC(=O)O)c(C)n2C(=O)c1ccc(Cl)cc1 | 3
CN(C)CCC=C1c2ccccc2CCc2ccccc21 | 2.8
Cn1c(=O)c2[nH]cnc2n(C)c1=O.O | 2.8
O=C(O)c1cn(C2CC2)c2cc(N3CCNCC3)c(F)cc2c1=O | 2.5
Clc1ccccc1CN1CCc2sccc2C1 | 2.7
CO[C@H]1/C=C/O[C@@]2(C)Oc3c(C)c(O)c4c(O)c(c(/C=N/N5CCN(C)CC5)c(O)c4c3C2=O)NC(=O)/C(C)=C\C=C\[C@H](C)[C@H](O)[C@@H](C)[C@@H](O)[C@@H](C)[C@H](OC(C)=O)[C@@H]1C | 2.7
CCc1cc(C(N)=S)ccn1 [ETHIONAMIDE] | 3.2

Okay, now this compound:
## Task Recorded KIDNEY_TOTAL of "NC(=O)N/N=C/c1ccc([N+](=O)[O-])o1" , please.
## Result 2.8

----------
organism: Rattus norvegicus; assay: Open TG-GATES - Regimen: Single; type: toxicity, organism-based, Sprague-Dawley; design: regimen Single, gender Male, age 6 weeks; conditions: in vivo, po, 1000 mg/kg, 9 h, tissue Blood, route gavage, dose level High
measured-metric: Fbg (mg/dL)
A number alone suffices; assume mg/dL.

molecule | number
O=C(O)c1cc(/N=N/c2ccc(S(=O)(=O)Nc3ccccn3)cc2)ccc1O | 222.2
Clc1ccccc1CN1CCc2sccc2C1 | 228.8
O=C(O)c1cn(C2CC2)c2cc(N3CCNCC3)c(F)cc2c1=O | 223
CCc1cc(C(N)=S)ccn1 [ETHIONAMIDE] | 209

// moving on: another record for Fbg
## Task Value lookup for Fbg; key = "C[C@H](CS)C(=O)N1CCC[C@H]1C(=O)O"
## Result 201.2

----------
species: Rattus norvegicus; experiment: Open TG-GATES - Regimen: Single; format: toxicity, organism-based, Sprague-Dawley; parameters: regimen Single, gender Male, age 6 weeks; conditions: in vivo, po, 300 mg/kg, 9 h, tissue Plasma, route gavage, dose level Middle
measured-metric: RALB
Please answer using the number first and the unit second.

Consider the reported RALB for these compounds:
compound | result
C[C@H](CS)C(=O)N1CCC[C@H]1C(=O)O | 3.7 g/dL
O=C(O)c1cc(/N=N/c2ccc(S(=O)(=O)Nc3ccccn3)cc2)ccc1O | 3.3 g/dL
Clc1ccccc1CN1CCc2sccc2C1 | 3.3 g/dL
O=C(O)c1cn(C2CC2)c2cc(N3CCNCC3)c(F)cc2c1=O | 3.9 g/dL

Turning now to a further compound:
## Task Looking for the measured RALB of CCc1cc(C(N)=S)ccn1 [ETHIONAMIDE] , can you help?
## Result 3.6 g/dL

----------
species on record: Rattus norvegicus; test: Open TG-GATES - Regimen: Single; assay type: toxicity, organism-based, Sprague-Dawley; design: regimen Single, gender Male, age 6 weeks; conditions: in vivo, po, 1000 mg/kg, 6 h, tissue Plasma, route gavage, dose level High
# Na annotations
State the answer as a number, implicitly in meq/L.

Below, 4 compounds whose answers are already recorded.
compound | measured-metric | number
C[C@H](CS)C(=O)N1CCC[C@H]1C(=O)O [CAPTOPRIL] | Na | 139.6
O=C(O)c1cc(/N=N/c2ccc(S(=O)(=O)Nc3ccccn3)cc2)ccc1O [SULFASALAZINE] | Na | 141.4
Clc1ccccc1CN1CCc2sccc2C1 [TICLOPIDINE] | Na | 141.8
CCc1cc(C(N)=S)ccn1 [ETHIONAMIDE] | Na | 139.2

## Task Reported Na for O=C(O)c1cn(C2CC2)c2cc(N3CCNCC3)c(F)cc2c1=O [CIPROFLOXACIN] : what is it?
## Result 138
